Where these numbers come from: patent US20110039770A1

# targetSystem: PKC-βI (Homo sapiens, UniProt P05771)
# Sequence (P05771 whole entry): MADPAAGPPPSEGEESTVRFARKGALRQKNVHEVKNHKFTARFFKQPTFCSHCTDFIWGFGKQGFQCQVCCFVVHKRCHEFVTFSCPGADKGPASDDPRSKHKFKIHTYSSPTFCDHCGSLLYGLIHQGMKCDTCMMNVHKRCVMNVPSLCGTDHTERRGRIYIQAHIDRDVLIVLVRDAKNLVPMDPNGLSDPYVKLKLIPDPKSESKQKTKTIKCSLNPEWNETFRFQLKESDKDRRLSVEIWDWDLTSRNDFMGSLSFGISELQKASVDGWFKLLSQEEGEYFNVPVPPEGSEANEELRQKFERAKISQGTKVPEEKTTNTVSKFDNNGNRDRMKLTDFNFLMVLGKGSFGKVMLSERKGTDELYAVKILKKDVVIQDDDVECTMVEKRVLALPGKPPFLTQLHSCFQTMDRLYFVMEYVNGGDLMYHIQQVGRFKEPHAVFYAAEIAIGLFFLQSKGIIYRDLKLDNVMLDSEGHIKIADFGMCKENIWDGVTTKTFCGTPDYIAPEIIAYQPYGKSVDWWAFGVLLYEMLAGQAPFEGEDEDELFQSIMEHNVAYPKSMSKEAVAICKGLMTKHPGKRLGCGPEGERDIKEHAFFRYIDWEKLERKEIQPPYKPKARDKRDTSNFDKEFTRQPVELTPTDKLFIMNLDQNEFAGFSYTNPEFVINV
# methodSummary: Competitive binding assay using cell extracts (Western blot)
# Set-up: PKC-βII by PRE 3 and PRE 4 in IMR-32 Neuroblastoma; endogenous in cells; host or cells: IMR-32 human neuroblastoma cells; key: —: no detectable affinity; Low to very low affinity at 10X or 20X or both PRE concentrations in at least one cell line in the cell extract assay; Low affinity in purified isoform assay.; Moderate affinity at 10X or 20X or both PRE concentrations in at least one cell line in the cell extract assay.; High affinity at 10X or 20X or both PRE concentrations in at least one cell line in the cell extract assay; High affinity in purified isoform assay
# conditionDescription: Cell extract; PRE 10X or 20X antibody concentration
[ ]: non-standard residue; d: D form.
recordedMetric: Affinity for PKC isoform βI

The examples below pair each entry with its known result.
substance	Affinity for PKC isoform βI
RRKKGGKDFVVKR [PRE 1]	H
Ac-RDAQNLIGISI-NH2 [PRE 11]	H
Ac-KDAQNLI-NH2 [PRE 12]	—
Ac-ISIGILQNADK-NH2 (not fully specified; printed as Ac-ISIGILQNADK-NH2) [PRE 7]	—
Ac-ISIGILNQADK-NH2 [PRE 10]	M
Ac-RDAQNLI-NH2 [PRE 13]	—
Ac-KDANQLIGISI-NH2 [PRE 6]	H

Exam item: Output measured Affinity for PKC isoform βI for this item: Ac-isigilqnadk-NH2 (Ac-[dI][dS][dI]G[dI][dL][dQ][dN][dA][dD][dK]-NH2; SMILES CC[C@@H](C)[C@@H](NC(C)=O)C(=O)N[C@H](CO)C(=O)N[C@@H](C(=O)NCC(=O)N[C@@H](C(=O)N[C@H](CC(C)C)C(=O)N[C@H](CCC(N)=O)C(=O)N[C@H](CC(N)=O)C(=O)N[C@H](C)C(=O)N[C@H](CC(=O)O)C(=O)N[C@H](CCCCN)C(N)=O)[C@H](C)CC)[C@H](C)CC) [PRE 9]
Marked response: M

====

# targetSystem: PKC-δ (Homo sapiens, UniProt Q05655)
# Sequence (Q05655 whole entry, canonical isoform): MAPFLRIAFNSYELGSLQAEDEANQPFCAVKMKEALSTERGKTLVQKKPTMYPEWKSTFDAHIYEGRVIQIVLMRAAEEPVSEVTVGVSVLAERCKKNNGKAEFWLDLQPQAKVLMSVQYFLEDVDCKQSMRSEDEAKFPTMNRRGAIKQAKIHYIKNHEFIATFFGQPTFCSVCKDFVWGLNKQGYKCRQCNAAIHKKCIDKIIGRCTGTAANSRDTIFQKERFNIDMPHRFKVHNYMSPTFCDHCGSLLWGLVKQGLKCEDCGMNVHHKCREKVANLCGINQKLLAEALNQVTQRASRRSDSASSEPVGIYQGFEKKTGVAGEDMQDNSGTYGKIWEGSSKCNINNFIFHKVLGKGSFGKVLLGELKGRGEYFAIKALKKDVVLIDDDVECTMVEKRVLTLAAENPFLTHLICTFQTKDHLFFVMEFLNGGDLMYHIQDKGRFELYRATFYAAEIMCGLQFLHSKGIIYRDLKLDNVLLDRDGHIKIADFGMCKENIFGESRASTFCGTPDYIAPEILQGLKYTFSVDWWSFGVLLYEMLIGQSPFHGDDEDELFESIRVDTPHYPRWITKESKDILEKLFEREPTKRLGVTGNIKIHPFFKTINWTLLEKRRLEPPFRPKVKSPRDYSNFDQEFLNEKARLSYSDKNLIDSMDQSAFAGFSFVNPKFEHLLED
# methodSummary: ELISA-based competitive binding assay with purified PKC isoform
# Parameters: key: —: no detectable affinity; Low to very low affinity at 10X or 20X or both PRE concentrations in at least one cell line in the cell extract assay; Low affinity in purified isoform assay.; Moderate affinity at 10X or 20X or both PRE concentrations in at least one cell line in the cell extract assay.; High affinity at 10X or 20X or both PRE concentrations in at least one cell line in the cell extract assay; High affinity in purified isoform assay
# conditionDescription: Purified isoform
recordedMetric: Affinity for PKC isoform δ

substance	targetSystem	result
Ac-RDAQNLIGISI-NH2 [PRE 11]	PKC-δ (Homo sapiens, UniProt Q05655)	H
Ac-ISIGILQNADK-NH2 (not fully specified; printed as Ac-ISIGILQNADK-NH2) [PRE 7]	PKC-δ (Homo sapiens, UniProt Q05655)	—
Ac-KDANQLIGISI-NH2 [PRE 6]	PKC-δ (Homo sapiens, UniProt Q05655)	L
ILEDKGGDAQNLIGISI [PRE 8]	PKC-δ (Homo sapiens, UniProt Q05655)	—
RRKKGGKDFVVKR [PRE 1]	PKC-δ (Homo sapiens, UniProt Q05655)	H

Exam item: Output measured Affinity for PKC isoform δ for this item: Ac-ISIGILNQADK-NH2 [PRE 10]
Marked response: —
